The measurements presented in this section are drawn from patent US20140005163A1.

Tested on: PKB Ser473 phosphorylation in Rat1-myr-HA-p110 alpha cells
Assay: Reverse protein array assay, PKB Ser473 phosphorylation in Rat1-myr-p110 alpha cells
Format: cell-based
Conditions: 0.5 h, pAkt Ser473, 30 minutes compound incubation, read-out: p-PKB IC50
Please assign Not fulfilled whenever IC50 is at or above 0.04 µM, and Fulfilled whenever it is below.

input.smiles | assigned.label
CCOc1cncc(-c2ccc3ncc4c(c3c2)n(-c2c(C)nn(C)c2C)c(=O)n4C)c1 | Not fulfilled
COc1ncc(-c2ccc3ncc4c(c3c2)n(-c2cn(C)nc2Cl)c(=O)n4C)cc1N | Fulfilled
CCOc1ccc(-c2ccc3ncc4c(c3c2)n(-c2cnn(C)c2C)c(=O)n4C)cn1 | Not fulfilled
Cc1nn(C(C)C)cc1-n1c(=O)n(C)c2cnc3ccc(-c4cnc(N)c(CO)c4)cc3c21 | Fulfilled
Cc1nn(C)cc1-n1c(=O)n(C)c2cnc3ccc(-c4ccc(N5CCC5)nc4)cc3c21 | Fulfilled
CNc1cncc(-c2ccc3ncc4c(c3c2)n(-c2cn(C(C)C)nc2C)c(=O)n4C)c1 | Fulfilled
Cc1nn(C)cc1-n1c(=O)n(C)c2cnc3ccc(-c4cccc(S(=O)(=O)N(C)C)c4)cc3c21 | Fulfilled
CNc1cc(-c2ccc3ncc4c(c3c2)n(-c2cn(C)nc2C)c(=O)n4C)cnc1C | Fulfilled
Cc1nn(C)cc1-n1c(=O)n(C)c2cnc3ccc(-c4cnc(N(C)C)nc4)cc3c21 | Fulfilled
COc1ccc(-c2ccc3ncc4c(c3c2)n(-c2cc(C)nn2C)c(=O)n4C)cc1OC | Fulfilled
Cc1nn(C)cc1-n1c(=O)n(C)c2cnc3ccc(-c4cnc(N)c(Cl)c4)cc3c21 | Fulfilled
Cc1nn(C)cc1-n1c(=O)n(C)c2cnc3ccc(-c4cncc(NC5CCC5)c4)cc3c21 | Fulfilled
CCOc1ccc(-c2ccc3ncc4c(c3c2)n(-c2cn(C(C)C)nc2C)c(=O)n4C)cn1 | Not fulfilled
Cc1nn(C)cc1-n1c(=O)n(C)c2cnc3ccc(-c4cc(O)cc(C(F)(F)F)c4)cc3c21 | Not fulfilled
COc1ccc(-c2ccc3ncc4c(c3c2)n(-c2cn(C)nc2C)c(=O)n4C)cc1OC | Fulfilled
CCn1cc(-n2c(=O)n(C)c3cnc4ccc(-c5cnc(N)c(Cl)c5)cc4c32)c(C)n1 | Fulfilled

###

Molecular target: PI3K beta (Homo sapiens)
Construct: for the full-length p110-b subunit are generated and fused by overlapping PCR; p85(iSH2) fusion partner (see partner chain) (N); His tag (C); Tn5 (Trichoplusia ni) or TiniPro insect cells
Sequence (P42338 with tags, fused parts or gaps limits assumed): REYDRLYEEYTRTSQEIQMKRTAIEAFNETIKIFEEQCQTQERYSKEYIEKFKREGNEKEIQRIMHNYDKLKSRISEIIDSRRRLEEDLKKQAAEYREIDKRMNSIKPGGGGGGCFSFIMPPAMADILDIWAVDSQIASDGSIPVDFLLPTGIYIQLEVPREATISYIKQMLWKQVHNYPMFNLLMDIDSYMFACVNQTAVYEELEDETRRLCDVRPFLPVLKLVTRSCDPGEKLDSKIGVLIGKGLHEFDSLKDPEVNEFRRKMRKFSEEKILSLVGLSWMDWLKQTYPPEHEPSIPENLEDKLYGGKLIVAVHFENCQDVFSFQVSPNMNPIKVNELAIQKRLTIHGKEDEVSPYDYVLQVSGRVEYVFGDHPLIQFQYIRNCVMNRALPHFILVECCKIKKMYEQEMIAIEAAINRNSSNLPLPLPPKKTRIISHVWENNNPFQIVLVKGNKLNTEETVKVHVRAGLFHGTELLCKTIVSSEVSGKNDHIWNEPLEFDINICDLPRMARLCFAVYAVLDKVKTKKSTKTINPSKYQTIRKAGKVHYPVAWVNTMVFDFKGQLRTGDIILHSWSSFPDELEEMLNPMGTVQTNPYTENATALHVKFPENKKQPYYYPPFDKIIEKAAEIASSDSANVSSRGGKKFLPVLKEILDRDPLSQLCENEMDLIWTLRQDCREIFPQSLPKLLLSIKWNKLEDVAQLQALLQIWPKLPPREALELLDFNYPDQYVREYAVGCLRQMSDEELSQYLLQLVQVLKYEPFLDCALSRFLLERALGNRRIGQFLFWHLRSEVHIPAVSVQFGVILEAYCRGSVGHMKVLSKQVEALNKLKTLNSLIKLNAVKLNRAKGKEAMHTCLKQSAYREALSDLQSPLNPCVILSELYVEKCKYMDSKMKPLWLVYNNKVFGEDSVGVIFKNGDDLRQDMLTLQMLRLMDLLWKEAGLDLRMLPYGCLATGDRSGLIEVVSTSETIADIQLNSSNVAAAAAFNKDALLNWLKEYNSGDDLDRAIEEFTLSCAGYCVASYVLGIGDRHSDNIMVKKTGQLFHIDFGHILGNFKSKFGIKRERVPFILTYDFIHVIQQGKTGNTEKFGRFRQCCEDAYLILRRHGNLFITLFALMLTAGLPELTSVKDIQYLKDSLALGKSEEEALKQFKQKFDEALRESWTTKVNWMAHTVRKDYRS
Test: PI3K beta kinase assay (Kinase-Glo luminescence)
pIC50: −log10 of the molar value.
Note to self: values exactly at 7 are met. So pIC50 at or above 7 is met, below is not met.

input.smiles | assigned.label
CCOc1cc(-c2ccc3ncc4c(c3c2)n(-c2cn(C)nc2C)c(=O)n4C)ccn1 | not met
Cc1nn(C)cc1-n1c(=O)n(C)c2cnc3ccc(-c4ccc(N(C)C)nc4)cc3c21 | not met
Cc1nn(C)cc1-n1c(=O)n(C)c2cnc3ccc(-c4cccc(N(C)S(C)(=O)=O)c4)cc3c21 | not met
CNc1cc(-c2ccc3ncc4c(c3c2)n(-c2cn(C)nc2Cl)c(=O)n4C)cnc1COC | met
Cc1nn(C)c(C)c1-n1c(=O)n(C)c2cnc3ccc(-c4cccnc4)cc3c21 | not met
COCCOc1ccc(-c2ccc3ncc4c(c3c2)n(-c2cn(C)nc2C)c(=O)n4C)cn1 | not met
